pIC50 reference
# Test system: HCV NS3/4A protease complex, BMS strain (UniProt P27958, C1454S/C1711G, species not given/STRAIN_BMS)
# Measurement description: Recombinant HCV NS3/4A protease complex FRET peptide assay (BMS strain)
# Format: biochemical, HCV genotype 1a
# Measurement setup: NS3/4A BMS strain; read-out: IC50 range
# Description: Recombinant HCV NS3/4A Protease Complex FRET Peptide Assay […] The assay was performed in a 96-well polystyrene black plate from Falcon. […] The assay plate was read immediately using the Cytofluor Series 4000 (Perspective Biosystems). The instrument was set to read an emission of 340 nm and excitation of 490 nm at 25° C. […] The percent inhibition was calculated with the following equation: 100−[(δFinh/δFcon)×100] where δF is the change in fluorescence over the linear range of the curve.
pIC50: −log10 of the molar value.

Compound	pIC50
C=C[C@@H]1C[C@]1(NC(=O)[C@@H]1C[C@@H](Oc2nc(-c3cnccn3)cc3ccccc23)CN1C(=O)[C@@H](NC(=O)OC(C)(C)C)C(C)(C)C)C(=O)NS(=O)(=O)C1CC1	> 7.00

Endpoint output: pIC50 of C=C[C@@H]1C[C@]1(NC(=O)[C@@H]1C[C@@H](Oc2cc(-c3ccc(F)cc3)nc3c(C)noc23)CN1C(=O)[C@@H](NC(=O)OC(C)(C)C)C(C)(C)C)C(=O)NS(=O)(=O)C1CC1 . Value?
> 7.00

So what does the record say about pIC50 for C=C[C@H]1C[C@@]1(NC(=O)[C@@H]1C[C@@H](Oc2cccc3ccccc23)CN1C(=O)[C@@H](NC(=O)OC(C)(C)C)C(C)(C)C)C(=O)NS(C)(=O)=O ?
5.00 to 6.00

Looking for the measured pIC50 of C=C[C@@H]1C[C@]1(NC(=O)[C@@H]1C[C@@H](Oc2nc(-c3ccc(C#N)cc3)cc3ccccc23)CN1C(=O)[C@@H](NC(=O)OC(C)(C)C)C(C)(C)C)C(=O)NS(=O)(=O)C1CC1 , can you help?
> 7.00

# get_value(readout='pIC50', item= C=CC1C[C@]1(NC(=O)[C@@H]1C[C@@H](Oc2nccc3cc(C)ccc23)CN1C(=O)[C@@H](NC(=O)OC(C)(C)C)C(C)(C)C)C(=O)NS(=O)(=O)C1CC1 (some centres unmarked) )
> 7.00

###

# Tested on: HCV replicon in Huh7 cells
# Measurement description: HCV replicon cell-based assay
# Set-up: species or system HCV strain 1B
# Measurement setup: Hepatitis C virus, Huh-7; HCV replicon, Huh7 cells; read-out: EC50 range
Property name: EC50

Recorded EC50, per entry:
Molecule	Result
C=C[C@@H]1C[C@]1(NC(=O)[C@@H]1C[C@@H](Oc2nccc3cc(OC)ccc23)CN1C(=O)[C@@H](NC(=O)OC(C)(C)CC)C(C)(C)C)C(=O)NS(=O)(=O)C1CCC1 [Compound 382]	100 to 1000 nM
C=C[C@@H]1C[C@]1(NC(=O)[C@@H]1CC(Oc2nccc3cc(OC)ccc23)CN1C(=O)[C@@H](NC(=O)C1CCCC1)C(C)(C)C)C(=O)NS(=O)(=O)C1CC1 (some centres unmarked) [Compound 56]	< 100 nM
C=C[C@@H]1C[C@]1(NC(=O)[C@@H]1CC(Oc2nccc3cc(OC)ccc23)CN1C(=O)C([C@@H](C)CC)N(C)C(=O)OC(C)(C)C)C(=O)NS(=O)(=O)C1CC1 (some centres unmarked) [Compound 84]	100 to 1000 nM
C=C[C@@H]1C[C@]1(NC(=O)[C@@H]1C[C@@H](Oc2cncc(-c3csc(C)n3)c2)CN1C(=O)[C@@H](NC(=O)OC(C)(C)C)C(C)(C)C)C(=O)NS(=O)(=O)C1CC1 [Compound 433]	1000 to 10000 nM

Continue with the molecule presented below.
Reported EC50 for C=CC1C[C@]1(NC(=O)[C@@H]1C[C@@H](Oc2nnc(OCC)c3ccccc23)CN1C(=O)[C@@H](NC(=O)OC(C)(C)C)C(C)(C)C)C(=O)NS(=O)(=O)C1CC1 (some centres unmarked) [Compound 200] : what is it?
< 100 nM
